All figures here come from patent US9505781B2.

# tested-system: menin-MLL interaction (Homo sapiens, UniProt O00255)
# test-summary: biochemical
readout: IC50

Known results for molecules:
>  <molecule>
O=C(Cc1ccc(CS(=O)(=O)C(F)(F)F)cc1)N1CCN(c2ncnc3sc(CC(F)(F)F)cc23)CC1 [Compound 79]

>  <tested-system>
menin-MLL interaction (Homo sapiens, UniProt O00255)

>  <result>
100 to 500 nM

$$$$
>  <molecule>
N#Cc1ccc(CN2CCC(Nc3ncnc4sc(CC(F)(F)F)cc34)CC2)cc1 [Compound 144]

>  <tested-system>
menin-MLL interaction (Homo sapiens, UniProt O00255)

>  <result>
500 to 2000 nM

$$$$
>  <molecule>
COc1c(CN2CCC(Nc3ncnc4sc(CC(F)(F)F)cc34)CC2)ccc2[nH]c(C#N)cc12 [Compound 180]

>  <tested-system>
menin-MLL interaction (Homo sapiens, UniProt O00255)

>  <result>
< 100 nM

$$$$

--- query ---
*Q* # input molecule: FC(F)(F)Cc1sc2ncnc(N3CCN(c4nnc(C(F)(F)F)s4)CC3)c2c1I [Compound 6] ; wanted: its IC50
*A* 100 to 500 nM

----------
IC50 for assorted molecules
# tested-system: menin-MLL interaction (Homo sapiens, UniProt O00255)
# test-summary: biochemical

>  <smiles-repr>
N#Cc1cc2cc(CN3CCC(Nc4ncnc5sc(CC(F)(F)F)cc45)CC3)ccc2n1CCCC(F)(F)F

>  <IC50>
< 100 nM

$$$$
>  <smiles-repr>
N#C[C@@H]1C[C@@H]1c1ccc(CN2CCC(Nc3ncnc4sc(CC(F)(F)F)cc34)CC2)cc1

>  <IC50>
500 to 2000 nM

$$$$
>  <smiles-repr>
NN(c1ncnc2sc(CC(F)(F)F)cc12)C1CCN(Cc2ccccc2)CC1

>  <IC50>
100 to 500 nM

$$$$
>  <smiles-repr>
Cc1c(CN2CCC(Nc3ncnc4sc(CC(F)(F)F)cc34)CC2)ccc2c1cc(C#N)n2Cc1cnc[nH]1

>  <IC50>
< 100 nM

$$$$

*Q* # query: IC50 of entry COCc1cnc2sc(CC(F)(F)F)cc2c1NC1CCN(Cc2ccc3[nH]c(C#N)cc3c2)CC1
*A* 100 to 500 nM

*Q* Request the reported IC50 associated with CCOc1c(CN2CCC(Nc3ncnc4sc(CC(F)(F)F)cc34)CC2)ccc2c1cc(C#N)n2CC(N)=O
*A* 100 to 500 nM

*Q* For the molecule O=C(Cc1ccccc1O)N1CCN(c2ncnc3sc(CC(F)(F)F)cc23)CC1 , what IC50 is on record?
*A* 100 to 500 nM

----------
Overview of reported pIC50 across a group of compounds:
# tested-system: menin-MLL interaction (Homo sapiens)
# Sequence (O00255 1-610): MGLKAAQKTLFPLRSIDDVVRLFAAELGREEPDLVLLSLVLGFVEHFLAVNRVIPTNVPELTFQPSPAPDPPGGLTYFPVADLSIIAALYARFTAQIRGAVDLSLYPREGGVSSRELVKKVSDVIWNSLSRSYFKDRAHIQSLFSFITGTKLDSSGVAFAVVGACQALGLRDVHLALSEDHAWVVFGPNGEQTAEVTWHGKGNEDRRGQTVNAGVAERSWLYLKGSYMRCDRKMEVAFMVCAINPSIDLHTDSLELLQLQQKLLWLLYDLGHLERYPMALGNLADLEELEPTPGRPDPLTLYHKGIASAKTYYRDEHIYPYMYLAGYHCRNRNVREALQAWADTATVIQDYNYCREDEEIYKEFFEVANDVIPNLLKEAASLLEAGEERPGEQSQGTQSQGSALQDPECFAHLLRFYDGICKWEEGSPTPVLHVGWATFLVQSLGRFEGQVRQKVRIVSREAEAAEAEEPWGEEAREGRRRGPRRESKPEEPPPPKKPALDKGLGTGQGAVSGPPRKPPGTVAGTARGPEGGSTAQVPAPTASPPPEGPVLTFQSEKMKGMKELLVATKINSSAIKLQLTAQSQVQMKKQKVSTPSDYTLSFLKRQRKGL
# test-summary: biochemical
pIC50: −log10 of the molar value.

Recorded pIC50, per entry:
>  <compound>
Cc1noc(C)c1Cn1c(C#N)cc2cc(CN3CCC(Nc4ncnc5sc(CC(F)(F)F)cc45)CC3)ccc21

>  <readout>
pIC50

>  <result>
6.30 to 7.00

$$$$
>  <compound>
O=C(CCc1ccccc1)N1CCN(c2ncnc3sc(CC(F)(F)F)cc23)CC1

>  <readout>
pIC50

>  <result>
5.70 to 6.30

$$$$
>  <compound>
Cc1c(CN2CCC(Nc3ncnc4sc(CC(F)(F)F)cc34)CC2)ncc2[nH]c(C#N)cc12

>  <readout>
pIC50

>  <result>
> 7.00

$$$$
>  <compound>
Oc1cccc(O)c1CN1CCC(Nc2ncnc3sc(CC(F)(F)F)cc23)CC1

>  <readout>
pIC50

>  <result>
6.30 to 7.00

$$$$
>  <compound>
Cc1c(CN2CCC(Nc3ncnc4sc(CC(F)(F)F)cc34)CC2)ccc2c1cc(C#N)n2CCN1CCN(C)C(=O)C1

>  <readout>
pIC50

>  <result>
> 7.00

$$$$
>  <compound>
N#Cc1cc2c(CO)c(CN3CCC(Nc4ncnc5sc(CC(F)(F)F)cc45)CC3)ccc2n1CCO

>  <readout>
pIC50

>  <result>
> 7.00

$$$$

*Q* Look at this compound and give its reported pIC50. N#Cc1cc2cc(C(CO)N3CCC(Nc4ncnc5sc(CC(F)(F)F)cc45)CC3)ccc2[nH]1 (stereo not shown)
*A* > 7.00

----------
# tested-system: menin-MLL interaction (Homo sapiens)
# test-summary: biochemical
pIC50: −log10 of the molar value.
Quick list: pIC50 per entry.

# count of solved cases: 8
>  <molecule>
CN1CCN(Cc2ccc(CN3CCC(CNc4ncnc5sc(CC(F)(F)F)cc45)CC3)cc2)CC1 [Compound 267]

>  <pIC50>
5.70 to 6.30

$$$$
>  <molecule>
O=C(Cc1ccc(NS(=O)(=O)CNCC(F)(F)F)cc1)N1CCN(c2ncnc3sc(CC(F)(F)F)cc23)CC1 [Compound 62]

>  <pIC50>
> 7.00

$$$$
>  <molecule>
O=C1CCc2cc(CN3CCC(Nc4ncnc5sc(CC(F)(F)F)cc45)CC3)ccc2N1 [Compound 136]

>  <pIC50>
5.70 to 6.30

$$$$
>  <molecule>
Cc1nc(Cn2c(C#N)cc3cc(CN4CCC(Nc5ncnc6sc(CC(F)(F)F)cc56)CC4)ccc32)cs1 [Compound 201]

>  <pIC50>
> 7.00

$$$$
>  <molecule>
FC(F)(F)Cc1cc2c(N[C@@H]3[C@@H]4CC[C@H]3CN(Cc3ccccc3)C4)ncnc2s1 [Compound 135]

>  <pIC50>
6.30 to 7.00

$$$$
>  <molecule>
FC(F)(F)Cc1cc2c(NC3CCN(Cc4cc[nH]c4)CC3)ncnc2s1 [Compound 134]

>  <pIC50>
6.30 to 7.00

$$$$
>  <molecule>
N#Cc1c(F)c2cc(CN3CCC(Nc4ncnc5sc(CC(F)(F)F)cc45)CC3)ccc2n1CC(N)=O [Compound 213]

>  <pIC50>
> 7.00

$$$$
>  <molecule>
FC(F)(F)Cc1cc2c(NC3CCN(Cc4ccc(C(F)(F)F)cc4)CC3)ncnc2s1 [Compound 146]

>  <pIC50>
5.70 to 6.30

$$$$

Please look at the following molecule next.
*Q* What does the data say about its pIC50? Entry: CCCc1cc2c(NC3CCN(Cc4ccc(C)cc4)CC3)ncnc2s1 [Compound 151]
*A* 5.70 to 6.30

----------
Some compounds, each annotated with its measured IC50.
# tested-system: menin-MLL interaction (Homo sapiens)
# test-summary: biochemical

*Q* May I ask what IC50 has been recorded for N#Cc1cc2cc(CN3CCC(Nc4ncnc5sc(CC(F)(F)F)cc45)CC3)ccc2n1CC(O)(CO)COCCC1CCCCC1 (stereo not drawn) [Compound 413] ?
*A* 100 to 500 nM

*Q* Query (compound): N#Cc1cc2cc(CN3CCC(Nc4ncnc5sc(CC(F)(F)F)cc45)CC3)c(F)cc2[nH]1 [Compound 234] ; field requested: IC50
*A* 100 to 500 nM

*Q* Give its IC50 value. Item: N#Cc1cc2cc(CN3CCC(Nc4ncnc5sc(CC(F)(F)F)cc45)CC3)ccc2n1C[C@@H](O)CO [Compound 187]
*A* < 100 nM

*Q* Request the reported IC50 associated with Cc1c(CN2CCC(Nc3ncnc4sc(CC(F)(F)F)cc34)CC2)ccc2c1cc(C#N)n2CCN1CCOC(CO)C1 (stereo not drawn) [Compound 362]
*A* < 100 nM

*Q* Request the reported IC50 associated with Cc1c(CN2CCC(Nc3ncnc4sc(CC(F)(F)F)cc34)CC2)ccc2c1cc(C#N)n2CCN1CCN(S(=O)(=O)N(C)C)CC1 [Compound 375]
*A* < 100 nM

*Q* // lookup IC50 for FC(F)(F)Cc1cc2c(N3CCN(c4nnc(C5CC5)s4)CC3)ncnc2s1 [Compound 3]
*A* 100 to 500 nM

*Q* IC50 for FC(F)(F)Cc1cc2c(NCC3CCN(Cc4ccc(Cl)cc4C(F)(F)F)CC3)ncnc2s1 [Compound 269] ?
*A* 500 to 2000 nM

*Q* Which IC50 value is on record for Cc1c(CN2CCC(Nc3ncnc4sc(CC(F)(F)F)cc34)CC2)ccc2c1cc(C#N)n2CCc1cccnc1 [Compound 328] ?
*A* < 100 nM

*Q* For CCCc1cc2c(NC3CCN(Cc4ccccc4C)CC3)ncnc2s1 [Compound 153] , what is its reported IC50?
*A* 500 to 2000 nM

*Q* Item under review: N#Cc1cc2c(Br)c(CN3CCC(Nc4ncnc5sc(CC(F)(F)F)cc45)CC3)ccc2n1CC(N)=O [Compound 307] . Reported IC50?
*A* < 100 nM

*Q* Any idea what its IC50 is? The compound is CCCc1cc2c(NC3CCN(Cc4ccccc4Br)CC3)ncnc2s1 [Compound 152]
*A* 500 to 2000 nM

*Q* Any idea what its IC50 is? The compound is FC(F)(F)CCc1nnc(N2CCN(c3ncnc4sc(CC(F)(F)F)cc34)CC2)s1 [Compound 18]
*A* 500 to 2000 nM

*Q* I'd like to know its IC50. The compound in question is Cc1c(CN2CCC(Nc3ncnc4sc(CC(F)(F)F)cc34)CC2)ccc2c1cc(C#N)n2Cc1ncco1 [Compound 353]
*A* < 100 nM

*Q* Need IC50 of CN1CCN(S(=O)(=O)Nc2ccc(CC(=O)N3CCN(c4ncnc5sc(CC(F)(F)F)cc45)CC3)cc2)CC1 [Compound 55] , thanks.
*A* < 100 nM

*Q* Look up IC50 for this compound: Cc1c(CN2CCC(Nc3ncnc4sc(CC(F)(F)F)cc34)CC2)ccc2c1cc(C#N)n2Cc1cc(Cc2ccncc2)[nH]n1 [Compound 345]
*A* < 100 nM

*Q* Which IC50 is listed for CNC(=O)Cn1c(C#N)cc2cc(CN3CCC(Nc4ncnc5sc(CC(F)(F)F)cc45)CC3)ccc21 [Compound 212] ?
*A* < 100 nM
